Measured target: MMP-1 (Homo sapiens, UniProt P03956)
Sequence (P03956 100-469): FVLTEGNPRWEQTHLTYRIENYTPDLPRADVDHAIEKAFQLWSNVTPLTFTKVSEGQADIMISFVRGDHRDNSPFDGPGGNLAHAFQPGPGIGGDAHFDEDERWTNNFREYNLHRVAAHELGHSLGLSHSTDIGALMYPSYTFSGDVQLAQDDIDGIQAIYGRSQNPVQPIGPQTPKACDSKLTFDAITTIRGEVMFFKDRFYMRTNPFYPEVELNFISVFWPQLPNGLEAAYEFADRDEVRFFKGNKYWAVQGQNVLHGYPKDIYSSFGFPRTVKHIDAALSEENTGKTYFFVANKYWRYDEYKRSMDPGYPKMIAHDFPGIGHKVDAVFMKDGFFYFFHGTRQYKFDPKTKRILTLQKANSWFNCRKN
Test details: Inhibition of Human Collagenase (MMP-1), fluorescence assay
Assay type: biochemical
Readout: IC50 (µM)
Your answer should be a plain number; it is taken to be in µM.

-- ask Quick check: IC50 of Cc1ccc(C)c(COc2ccc(S(=O)(=O)N3C[C@H](C)O[C@@H](C)[C@@H]3C(=O)NO)cc2)c1 ?
-- reply 3.5

-- ask Look at this compound and give its reported IC50. Cc1ccccc1COc1ccc(S(=O)(=O)N2CCN[C@@H](C)[C@@H]2C(=O)NO)cc1
-- reply 10.6

-- ask What does the record list as IC50 for C[C@@H]1O[C@@H](C)CN(S(=O)(=O)c2ccc(OCc3ccncc3)cc2)[C@H]1C(=O)NO ?
-- reply 2

----------
Measured target: TACE (Homo sapiens, UniProt P78536)
Sequence (P78536 223-474): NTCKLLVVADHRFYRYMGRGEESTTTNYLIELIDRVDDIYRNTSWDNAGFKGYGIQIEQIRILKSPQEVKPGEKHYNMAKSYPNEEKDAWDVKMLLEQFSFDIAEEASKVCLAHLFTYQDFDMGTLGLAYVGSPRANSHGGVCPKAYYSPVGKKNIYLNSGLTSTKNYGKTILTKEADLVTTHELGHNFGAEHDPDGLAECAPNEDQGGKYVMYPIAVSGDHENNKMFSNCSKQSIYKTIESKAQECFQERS
Test details: Recombinant TNFα converting enzyme (TACE) activity, fluorescent quenched substrate
Type: biochemical
Run conditions: ratio of MMP-1 and TACE IC50 values
One threshold, 300, splits the recorded MMP-1/TACE IC50 selectivity ratio values: lower ones are 1 (yes), equal or higher ones are 0 (no).

-- ask Quick check: MMP-1/TACE IC50 selectivity ratio of C[C@@H]1O[C@@H](CO)CN(S(=O)(=O)c2ccc(OCc3ccc(F)cc3)cc2)[C@H]1C(=O)NO under 300?
-- reply 0 (no)

-- ask I wonder whether CC(=O)N1CCN(S(=O)(=O)c2ccc(OCc3ccccc3C)cc2)[C@@H](C(=O)NO)[C@@H]1C has MMP-1/TACE IC50 selectivity ratio below 300. Can you tell?
-- reply 1 (yes)

-- ask hey, is MMP-1/TACE IC50 selectivity ratio for Cc1ccccc1COc1ccc(S(=O)(=O)N2CCN[C@@H](C)[C@@H]2C(=O)NO)cc1 lower than 300 or not?
-- reply 0 (no)

-- ask Quick check: does CC1(C)[C@H](C(=O)NO)N(S(=O)(=O)c2ccc(OCc3ccc(F)cc3)cc2)CC[S+]1[O-] (some centres unmarked) have MMP-1/TACE IC50 selectivity ratio under 300?
-- reply 1 (yes)

-- ask Is MMP-1/TACE IC50 selectivity ratio strictly under 300 for the entry Cc1ccc(C)c(COc2ccc(S(=O)(=O)N3C[C@H](C)O[C@@H](C)[C@@H]3C(=O)NO)cc2)c1 ?
-- reply 0 (no)

-- ask Problem: For the compound CC1(C)[C@H](C(=O)NO)N(S(=O)(=O)c2ccc(OCc3ccc(F)cc3)cc2)CCS1(=O)=O , is MMP-1/TACE IC50 selectivity ratio under 300?
-- reply 1 (yes)

-- ask State whether 300 exceeds MMP-1/TACE IC50 selectivity ratio recorded for C[C@@H]1O[C@@H](C)CN(S(=O)(=O)c2ccc(OCc3ccncc3)cc2)[C@H]1C(=O)NO .
-- reply 1 (yes)
